- target-under-test: T1, human OT7T175 (metastin receptor) (human, UniProt Q969F8 1-398)
- T1 construct: expressed on CHO cells (hOT7T175-expressed CHO cells; hOT7T175/CHO); also called hOT7T175; h0T7T175
- T1 sequence (Q969F8 whole entry L364H): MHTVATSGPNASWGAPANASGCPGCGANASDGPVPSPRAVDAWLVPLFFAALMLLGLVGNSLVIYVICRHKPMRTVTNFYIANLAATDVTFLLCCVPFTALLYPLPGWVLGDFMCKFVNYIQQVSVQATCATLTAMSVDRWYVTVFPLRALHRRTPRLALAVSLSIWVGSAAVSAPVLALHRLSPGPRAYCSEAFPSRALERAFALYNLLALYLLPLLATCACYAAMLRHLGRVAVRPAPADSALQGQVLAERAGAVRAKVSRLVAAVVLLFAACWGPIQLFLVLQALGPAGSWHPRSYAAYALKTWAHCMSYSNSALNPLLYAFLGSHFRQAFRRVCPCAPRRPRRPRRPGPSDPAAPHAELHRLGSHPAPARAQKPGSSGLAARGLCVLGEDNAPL
- assay-explanation: FMAT competition with Cy-5-labeled metastin (40-54), hOT7T175-expressed CHO cells
Square brackets hold non-standard residues; d marks the D form. Ends that are not written are not given here. Arg(Me) = CNC(=N)NCCC[C@H](N)C(=O)O; Bta = N[C@@H](Cc1csc2ccccc12)C(=O)O; azaGly = NNC(=O)O
property-measured: pIC50
Give bare numbers, as −log10 of the molar value.

Known results for binders:
binder	pIC50
YNWNSFGLRX (Pya(4)10; C-terminal amide) [Compound No. 17: [Pya(4)10]MS10]	11.18
YNWNSFGLR[Bta]-NH2 (N-terminus assumed; SMILES CC(C)C[C@H](NC(=O)CNC(=O)[C@H](Cc1ccccc1)NC(=O)[C@H](CO)NC(=O)[C@H](CC(N)=O)NC(=O)[C@H](Cc1c[nH]c2ccccc12)NC(=O)[C@H](CC(N)=O)NC(=O)[C@@H](N)Cc1ccc(O)cc1)C(=O)N[C@@H](CCCNC(=N)N)C(=O)N[C@@H](Cc1csc2ccccc12)C(N)=O) [Compound No. 189: [Ala(3-Bzt)10]MS10]	6.64

Prompt: Which measured pIC50 value corresponds to Ac-RNSF[azaGly]L[Arg(Me)]F-NH2 (SMILES CNC(=N)NCCC[C@H](NC(=O)[C@H](CC(C)C)NC(=O)NNC(=O)[C@H](Cc1ccccc1)NC(=O)[C@H](CO)NC(=O)[C@H](CC(N)=O)NC(=O)[C@H](CCCNC(=N)N)NC(C)=O)C(=O)N[C@@H](Cc1ccccc1)C(N)=O) [Compound No. 275: des(1-2)-Acetyl-[Arg3,AzaGly7,Arg(Me)9]MS10] ?
Response: 6.39
